system: CAKI-1; assay: NCI tumour cell line growth inhibition, 48 h
Calls of active or inactive are those of the source. Cut-off read from the data, not from the text of the source: active = GI50 up to about 1.1 µM and inactive = higher.
Property label: GI50

Q) Find the measured GI50 of `Clc1nc(NCCc2ccccc2)c2ncn(-c3ccccc3)c2n1` and report it.
A) 7.83 µM (inactive)

Q) Find the measured GI50 of `CC(C)=NNC(=S)NC12CC3CC(CC(C3)C1)C2` and report it.
A) > 100 µM (inactive)

Q) Find the measured GI50 of `COc1cc(O)c2c(=O)cc(-c3ccc(O)cc3O)oc2c1CC=C(C)C` and report it.
A) 17.1 µM (inactive)

Q) Find the measured GI50 of CCOC(=O)C12CCCC1(O)N(NC(=O)c1ccccc1)C(C)=C2C(=O)OC (stereo unspecified) and report it.
A) > 100 µM (inactive)

Q) Find the measured GI50 of Cc1ccc(S(=O)OCC23CC4CC(CC(C4)C2)C3)cc1 (stereo unspecified) and report it.
A) > 100 µM (inactive)

Q) Find the measured GI50 of Cc1cn(C(Cc2ccccc2)OCCO)c(=O)[nH]c1=O (stereo unspecified) and report it.
A) > 100 µM (inactive)

----------
Exercise: for every item that follows, state its recorded GI50.
test system: SF-295; experiment: NCI tumour cell line growth inhibition, 48 h
Calls of active or inactive are those of the source. Cut-off read from the data, not from the text of the source: active = GI50 up to about 1.1 µM and inactive = higher.

Q) Find the measured GI50 of `COc1cc2c(OC)c(c1)CCCC1=CC(=O)C=C(CCC2)C1=O` and report it.
A) 50.2 µM (inactive)

Q) Find the measured GI50 of `CC[C@H]1C=CCC[C@@]2(C[C@@H]3CC[C@H]4[C@@H](C(=O)OCCCCCCCCCCCCCCCC(=O)N(CCCN)C[C@@H](O)CCN)[C@@]5(CCC[C@@H](C)O5)NC(=[N+]34)N2)O1` and report it.
A) 1.9 µM (inactive)

Q) Find the measured GI50 of `O=c1[nH]c(C2CCCCC2)nc2c(Cl)cccc12` and report it.
A) > 100 µM (inactive)

Q) Find the measured GI50 of O=C1ON(Cc2ccccc2)C(c2ccccc2)N1c1ccccc1 (stereo not given) and report it.
A) > 64 µM (inactive)

Q) Find the measured GI50 of COC(=O)C1=C(C(=O)OC)C2(C)CCC(=O)C1O2 (stereo not given) and report it.
A) > 10 µM (inactive)

Q) Find the measured GI50 of `CCCCN(CC)C(=O)C(=O)Cc1nc2ccc(C(=O)c3ccccc3)cc2nc1O` and report it.
A) 59 µM (inactive)

Q) Find the measured GI50 of `O=[N+]([O-])c1ccc(N/N=C/c2ccc(OCCCCCCCCCCCO)cc2)c([N+](=O)[O-])c1` and report it.
A) 3.24 µM (inactive)

Q) Find the measured GI50 of `CCC1(CC)C(=O)NN(C(=O)c2ccccc2)C1=O` and report it.
A) > 100 µM (inactive)

Q) Find the measured GI50 of `COC(CN1C=C(Sc2ccccc2)CC1)OC` and report it.
A) 19.5 µM (inactive)

Q) Find the measured GI50 of `CC1=CC(C)(C)[C@H]2O[C@@]3(O)C[C@]4(C)[C@H]5C[C@@](C(C)C)(O[C@H]4c4ccoc4)O[C@H]4[C@]5(C3)O[C@@]1(O)[C@]24O` and report it.
A) > 100 µM (inactive)

----------
test system: NCI-H460; assay: NCI tumour cell line growth inhibition, 48 h
Calls of active or inactive are those of the source. No stated cut-off is given here; in the data, active = GI50 up to about 1.1 µM and inactive = higher.
Exercise: for every item that follows, state its recorded GI50.

Q) Find the measured GI50 of c1nc(N2CC2)c2cnn(C3CCCCO3)c2n1 (centres undefined) and report it.
A) > 100 µM (inactive)

Q) Find the measured GI50 of `CCN(CC)CCNC(=O)c1ccc(C)c(OCc2ccccc2)c1[N+](=O)[O-]` and report it.
A) 36.6 µM (inactive)

Q) Find the measured GI50 of `O=C(Cn1c2ccc(Br)cc2c2nc3ccccc3nc21)NC1CCCCC1` and report it.
A) > 100 µM (inactive)

Q) Find the measured GI50 of CC(C)(C)C1CC[C@H](O)[C@H]([C@H](O)CC2CC(=O)N(c3ccccc3)C(=O)C2)C1 (some centres undefined) and report it.
A) 95.9 µM (inactive)

Data origin, for the record: ChEMBL document CHEMBL1201862
